Tested on: TNF-α secretion, peripheral blood mononuclear cells (PBMCs)
Assay: Suppression of TNF-α secretion in LPS-treated PBMCs (ELISA)
Type: cell-based
Settings: PBMC, 0.1 μM, 100 ng/ml LPS, 24 hours, read-out: TNF-α, % inhibition degree
Experimental: Peripheral blood mononuclear cells (PBMCs) isolated from whole blood were distributed in a 96-well plate. […] The reaction was stopped by adding a stop solution thereto, and the absorbance at 450 nm and 570 nm was measured using an absorber (OPTIMax tunable microplate reader, molecular devices). […]
Property Measured: inhibition at 0.1 µM (%)
Answer with a number only, understood to be in %.

1) c1cc(-c2ccc3c(c2)[nH]c2ncnc(N[C@H]4CC[C@H](N5CCOCC5)CC4)c23)ccn1 [Compound 6caa] | 5
2) CN(C)[C@H]1CC[C@H](Nc2ncnc3[nH]c4ccc(-c5cncc(F)c5)cc4c23)CC1 [Compound 6aba] | 39.1
3) Cn1cc(-c2ccc3[nH]c4ncnc(N[C@H]5CC[C@H](N(C)C)CC5)c4c3c2)cn1 [Compound 6abb] | 17.9

For the compound shown here, Fc1ccc(-c2ccc3[nH]c4ncnc(N[C@H]5CC[C@H](N6CCOCC6)CC5)c4c3c2)cc1 [Compound 6aan] , give the reported inhibition at 0.1 µM. 9

For the compound shown here, Cn1cc(-c2ccc3[nH]c4nccc(N[C@H]5CC[C@H](N6CCOCC6)CC5)c4c3c2)cn1 [Compound 17a] , give the reported inhibition at 0.1 µM. 22

For the compound shown here, O=[N+]([O-])c1cccc(-c2ccc3[nH]c4ncnc(N[C@H]5CC[C@H](N6CCOCC6)CC5)c4c3c2)c1 [Compound 6aai] , give the reported inhibition at 0.1 µM. 13

For the compound shown here, COc1cccc(-c2ccc3[nH]c4ncnc(N[C@H]5CC[C@H](N6CCOCC6)CC5)c4c3c2)c1 [Compound 6aaj] , give the reported inhibition at 0.1 µM. 3.2

---

Sequence of the target: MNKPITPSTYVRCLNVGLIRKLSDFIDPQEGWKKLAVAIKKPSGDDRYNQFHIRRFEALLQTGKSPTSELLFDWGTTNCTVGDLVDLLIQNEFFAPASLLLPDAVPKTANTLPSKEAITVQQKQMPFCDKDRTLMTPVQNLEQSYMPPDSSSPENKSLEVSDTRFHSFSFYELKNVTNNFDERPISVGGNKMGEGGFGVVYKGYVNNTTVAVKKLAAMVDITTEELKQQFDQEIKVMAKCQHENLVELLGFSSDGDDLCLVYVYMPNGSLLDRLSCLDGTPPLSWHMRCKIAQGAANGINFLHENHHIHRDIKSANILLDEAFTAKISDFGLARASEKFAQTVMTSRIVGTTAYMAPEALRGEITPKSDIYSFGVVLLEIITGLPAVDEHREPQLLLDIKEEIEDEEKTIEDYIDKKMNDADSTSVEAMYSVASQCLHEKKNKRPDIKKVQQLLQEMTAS
Recorded log10(IC50) for the following compounds
Please note: log10 values; quantity IC50; unit nM.

As a guide, the following entries are already answered.
1) CN(C)[C@H]1CC[C@H](Nc2ncnc3[nH]c4ccc(-c5cncc(F)c5)cc4c23)CC1 [Compound 6aba] | 0.60
2) c1nc(N[C@H]2CC[C@H](N3CCOCC3)CC2)c2c(n1)[nH]c1ccc(-c3nnc[nH]3)cc12 [Compound 6baa] | 2.49
3) Cn1cc(-c2ccc3[nH]c4ncnc(NCCN5CCOCC5)c4c3c2)cn1 [Compound 6ada] | 2.94
4) COc1cccc(-c2ccc3[nH]c4ncnc(N[C@H]5CC[C@H](N6CCOCC6)CC5)c4c3c2)c1 [Compound 6aaj] | 2.20

// next entry
For the compound shown here, Fc1ccc(-c2ccc3[nH]c4ncnc(N[C@H]5CC[C@H](N6CCOCC6)CC5)c4c3c2)c(F)c1 [Compound 6aam] , give the reported log10(IC50). 2.39
